- Assay Explanation: chemical genetic growth profiling, strain panel (AID 1159580);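 further: tested at 20 µM; growth read once vehicle control cultures reached saturation at 30 °C; 1 = growth at the plate median or of vehicle wells; lower values mean less growth of the strain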
- Setup Conditions: S. cerevisiae deletion strains, growth OD, locus YDR392W, strain spt3, hits give low values
In all, about 5,500 compounds went through this assay and about 2,000 (36%) were called active. About 18% were inconclusive and are not listed. Some of the results follow.
Parameter: normalized growth

{"Compound": "C=CC[C@@H]1/C=C(\\C)C[C@H](C)C[C@H](OC)[C@H]2O[C@@](O)(C(=O)C(=O)N3CCCC[C@H]3C(=O)O[C@H](/C(C)=C/[C@@H]3CC[C@@H](O)[C@H](OC)C3)[C@H](C)[C@@H](O)CC1=O)[C@H](C)C[C@@H]2OC", "Parameter": "normalized growth", "Reported Value": 0.55}
{"Compound": "O=C(O)c1cc(=O)c2ccccc2[nH]1", "Parameter": "normalized growth", "Reported Value": 0.963}
{"Compound": "ClC1C(Cl)C(Cl)C(Cl)C(Cl)C1Cl (centres undefined)", "Parameter": "normalized growth", "Reported Value": 0.295}
{"Compound": "CN1CCN(C2=Nc3cc(Cl)ccc3Nc3ccccc32)CC1", "Parameter": "normalized growth", "Reported Value": 0.801}
{"Compound": "Cn1c(=O)c2c(ncn2CCO)n(C)c1=O", "Parameter": "normalized growth", "Reported Value": 1.03}
{"Compound": "COc1cc(O)c2c(c1)C(=O)c1cc(C)cc(O)c1C2=O", "Parameter": "normalized growth", "Reported Value": 0.95}
{"Compound": "CC(C)C1CCC(C(=O)N[C@@H](Cc2ccccc2)C(=O)O)CC1 (some centres undefined)", "Parameter": "normalized growth", "Reported Value": 0.985}
{"Compound": "COC(=O)CC1C(C)(C(=O)c2ccoc2)CC2OCC34C(CC(=O)OC)C5(C)CC36OC3(C)OC1(C(OC(C)=O)C6(OC(C)=O)C5OC(=O)C(C)C)C24O3 (centres undefined)", "Parameter": "normalized growth", "Reported Value": 0.911}
{"Compound": "CC(=O)c1c(O)cc(O)cc1O", "Parameter": "normalized growth", "Reported Value": 0.952}

###

- Assay Explanation: chemical genetic growth profiling, strain panel (AID 1159580);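 further: tested at 20 µM; growth read once vehicle control cultures reached saturation at 30 °C; 1 = growth at the plate median or of vehicle wells; lower values mean less growth of the strain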
- Setup Conditions: S. cerevisiae deletion strains, growth OD, locus YDL185W, strain tfp1
In all, about 5,500 compounds went through this assay and about 2,000 (36%) were called active. Another 18% or so got no clear call; they are omitted. No stated cut-off is given here; in the data, active means normalized growth mostly below about 0.91 (no sharp cut-off); inconclusive means no clear call, values can overlap the other calls; inactive means mostly above about 0.92. This is one part of the list.
Outcomes: TRUE (active), FALSE (inactive)

{"Compound": "COc1ccc(NS(=O)(=O)c2ccc(N)cc2)nn1", "Cat": "FALSE"}
{"Compound": "NS(=O)(=O)c1cc2c(cc1Cl)NCNS2(=O)=O", "Cat": "FALSE"}
{"Compound": "Oc1cccc2cccnc12", "Cat": "TRUE"}
{"Compound": "Cn1c(=O)c2c(ncn2C)n(C)c1=O", "Cat": "FALSE"}
{"Compound": "O=C1C(=O)c2ccccc2C(O)=C1C1CCC(c2ccc(Cl)cc2)CC1 (stereo not drawn)", "Cat": "FALSE"}
{"Compound": "O=C(N[C@@H](CO)[C@H](O)c1ccc([N+](=O)[O-])cc1)C(Cl)Cl", "Cat": "FALSE"}
{"Compound": "O=C(O)CCC(=O)OC[C@@H](NC(=O)C(Cl)Cl)[C@H](O)c1ccc([N+](=O)[O-])cc1", "Cat": "FALSE"}
{"Compound": "C[C@]12CC[C@@H](O)C[C@H]1CCc1ccccc12", "Cat": "FALSE"}
{"Compound": "CC(=O)NS(=O)(=O)c1ccc(N)cc1", "Cat": "FALSE"}
{"Compound": "CC(=O)OC1CCC23CC1(C)CCC2C(C)(C)CC3OC(C)=O (stereo not drawn)", "Cat": "FALSE"}
{"Compound": "COC(=O)C[C@H]1C(C)(C)[C@H](O)[C@@H]2CC3=C4CC(O)O[C@@H](c5ccoc5)[C@]4(C)CCC3[C@@]1(C)C2=O (stereo partly drawn)", "Cat": "FALSE"}
{"Compound": "COP(=O)(NC(C)=O)SC (stereo not drawn)", "Cat": "FALSE"}
{"Compound": "CC(C)N1C(=O)c2ccccc2NS1(=O)=O", "Cat": "FALSE"}
{"Compound": "Cn1cnc2c1c(=O)[nH]c(=O)n2C", "Cat": "FALSE"}
{"Compound": "C[N+]12CCC(CC1)C(OC(=O)C(O)(c1ccccc1)c1ccccc1)C2 (stereo not drawn)", "Cat": "FALSE"}
{"Compound": "O=C(O)c1cc(=O)c2ccccc2[nH]1", "Cat": "FALSE"}
{"Compound": "O=C(O)c1cccnc1C(=O)O", "Cat": "FALSE"}
{"Compound": "CC(=O)O[C@@H]1C2CC[C@@H]3C1(C[C@@H](O)[C@@]1(O)[C@@H](C[C@H](O)C1(C)C)[C@]3(C)O)C[C@@]2(C)O (stereo partly drawn)", "Cat": "FALSE"}

###

- Assay Explanation: chemical genetic growth profiling, strain panel (AID 1159580);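 further: tested at 20 µM; growth read once vehicle control cultures reached saturation at 30 °C; 1 = growth at the plate median or of vehicle wells; lower values mean less growth of the strain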
- Setup Conditions: S. cerevisiae deletion strains, growth OD, locus YER002W, strain NOP16, hits give low values
Screen size: about 5,500 compounds; about 2,000 (36%) were called active. Inconclusive results (about 18%) are left out. The list shows a part of the results.
A collection of compounds and their measured normalized growth

{"Compound": "Oc1cc2c(cc1O)[C@H]1c3ccccc3CN[C@@H]1CC2", "normalized growth": 1.03}
{"Compound": "NC1CCc2cc(O)c(O)cc2C1 (centres undefined)", "normalized growth": 1.02}
{"Compound": "Nc1ccc2c3c(cccc13)C(=O)NC2=O", "normalized growth": 0.998}
{"Compound": "Nc1nc(SCc2ccc([N+](=O)[O-])cc2)c2ncn([C@@H]3O[C@H](CO)[C@H](O)C3O)c2n1 (some centres undefined)", "normalized growth": 1}
{"Compound": "COC(=O)[C@H](NC(=O)c1cc(-c2ccccc2)nc2ccccc12)c1ccccc1", "normalized growth": 1.01}
{"Compound": "COc1ccc(CNC(=O)/C=C/c2ccc3[nH]cc(CCN(C)C)c3c2)cc1", "normalized growth": 0.997}
{"Compound": "COC(=O)c1c(-c2cc(OC)c(OC)c(OC)c2)c2ccnc(OCc3ncccn3)c2c(=O)n1Cc1ccnc(C)c1", "normalized growth": 1}
{"Compound": "COC[C@H]1OC(=O)c2coc3c2[C@@]1(C)C1=C(C3=O)C2CCC(=O)[C@@]2(C)C[C@H]1OC(C)=O (some centres undefined)", "normalized growth": 0.0648}
{"Compound": "O=C(Cc1ccc(Cl)c(Cl)c1)N1CCCCC1CN1CCCC1 (centres undefined)", "normalized growth": 0.999}

###

- Assay Explanation: chemical genetic growth profiling, strain panel (AID 1159580);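 further: tested at 20 µM; growth read once vehicle control cultures reached saturation at 30 °C; 1 = growth at the plate median or of vehicle wells; lower values mean less growth of the strain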
- Setup Conditions: S. cerevisiae deletion strains, growth OD, locus YOR119C, strain RIO1, hits give low values
The campaign covered roughly 5,500 compounds. About 2,000 (36%) were called active. About 18% were inconclusive and are not listed. This is one part of the list.

{"Molecule": "Cn1ncc(-c2nc(-c3ccc(Cl)cc3)cs2)c1N", "normalized growth": 0.803}
{"Molecule": "CCOC(=O)c1cnc(-c2ccccn2)[nH]c1=O", "normalized growth": 0.863}
{"Molecule": "O=[N+]([O-])c1ccc(Sc2ccccc2)c([N+](=O)[O-])c1", "normalized growth": 0.806}
{"Molecule": "O=C(Nc1cc(Cl)cc(Cl)c1)c1cc(Br)ccc1O", "normalized growth": 0.925}
{"Molecule": "FC(F)(F)c1ccncc1-c1nc(-c2ccc(Cl)cc2)cs1", "normalized growth": 0.975}
{"Molecule": "N/C(=N/OCc1c(F)cccc1Cl)c1ccc(Cl)cc1", "normalized growth": 0.983}
{"Molecule": "COC(=S)Nc1cc(Cl)cc(Cl)c1", "normalized growth": 0.746}
{"Molecule": "CC(=O)c1ccc(Sc2ccccc2)c([N+](=O)[O-])c1", "normalized growth": 0.835}
{"Molecule": "O=[N+]([O-])c1cc(C(F)(F)F)ccc1Sc1n[nH]c(-c2cc(Cl)cc(Cl)c2)n1", "normalized growth": 0.673}
{"Molecule": "Cc1csc2ncnc(N3CCN(C(=O)Nc4ccc(SC(F)(F)F)cc4)CC3)c12", "normalized growth": 0.967}
{"Molecule": "Cc1csc2c(N3CCN(C(=S)Nc4ccc(C(F)(F)F)cc4)CC3)ncnc12", "normalized growth": 1.03}
{"Molecule": "CCOC(=O)C(O)(c1ccc(NC(=O)c2ccc(Cl)c(Cl)c2)cc1)C(F)(F)F (configuration not stated)", "normalized growth": 0.957}
{"Molecule": "Cc1cc2nc3c(Cl)c(O)c4ccccc4c3nc2cc1C", "normalized growth": 0.831}
{"Molecule": "O=C(Nc1ccc(F)cc1)c1cc(Br)ccc1O", "normalized growth": 0.881}
{"Molecule": "Cc1cc(N=Cc2cc(Cl)cc(Cl)c2O)no1", "normalized growth": 0.571}
{"Molecule": "O=C(/C=C/c1ccc(Cl)cc1)Nc1cccc(Cl)c1", "normalized growth": 0.867}
{"Molecule": "O=C(Nc1ccc(F)cc1F)c1cc(Cl)ccc1O", "normalized growth": 1.01}
